Recorded values, source patent US10144690B2.

Please provide measured p-AMPK/GAPDH ratio relative to the control (100%) for the entries that follow.
System: phospho-AMPK (Thr-172) (p-AMPK)
ASSAY_OVERVIEW: p-AMPK expression by Western blotting in normal human epidermal keratinocytes (p-AMPK/GAPDH ratio relative to control)
Assay type: cell-based
MEASUREMENT_CONDITIONS: test compound 100 μM, 12 hours incubation
One number for each entry, in %.

Completed entries (count: 3):
>>> df
                                   molecule  experimental_result
0  COc1ccc([C@@H](O)[C@H](O)c2ccc(OC)cc2)cc1 [Compound 1]                  198
1  COc1cc(C(O)C(O)c2ccc(O)c(OC)c2)ccc1O (stereo not shown) [Compound 3]                  158
2  Oc1ccc(C(O)C(O)c2cc(O)cc(O)c2)cc1 (stereo not shown) [Compound 4]                  159

Okay, now this molecule:
Entry COc1ccc(C(O)[C@H](O)c2ccc(OC)cc2)cc1 (stereo partly shown) [Compound 2] ; p-AMPK/GAPDH ratio relative to the control (100%) = 149
